System: K562 cells
Test: Growth inhibition assay (Alamar Blue)
Type: cell-based
Conditions: Homo sapiens, K562, 72 h, read-out: IC50 Growth inhibition
ATTRIBUTE_MEASURED: IC50 (µM)
Answers are plain numbers, in µM.

If you can, please state the reported IC50 value of CC(C)NCCCn1c(Sc2cc3c(cc2I)OCO3)nc2c(N)ncnc21 [1a, PU-H71] . 0.08

----------
Kindly supply the reported IC50 values for the records listed here.
Tested on: K562 cells
Test: Growth inhibition assay (Alamar Blue)
Assay type: cell-based
Conditions: Homo sapiens; Figure 2a; K562, 72 h, Alamar Blue; read-out: IC50 Growth inhibition
Give bare numbers, in nM.

Nc1ncnc2c1nc(Sc1cc3c(cc1I)OCO3)n2CCCNCCOCCOCCOCCNC(=O)CCCC[C@@H]1SC[C@@H]2NC(=O)N[C@@H]21 [2a]; 5000

Batch of 5 compounds: report IC50 for each.
1. CC(C)N(CCCn1c(Sc2cc3c(cc2I)OCO3)nc2c(N)ncnc21)C(=O)CCOCCOCCOCCOCCNC(=O)CCCC[C@@H]1SC[C@@H]2NC(=O)N[C@@H]21 [2h]
2. CC(C)N(CCCn1c(Sc2cc3c(cc2I)OCO3)nc2c(N)ncnc21)C(=O)CCCC[C@@H]1SC[C@@H]2NC(=O)N[C@@H]21 [2b]
3. Nc1ncnc2c1nc(Sc1cc3c(cc1I)OCO3)n2CCCNC(=O)CCCCCNC(=O)CCCC[C@@H]1SC[C@@H]2NC(=O)N[C@@H]21 [2e]
4. CC(C)N(CCCn1c(Sc2cc3c(cc2I)OCO3)nc2c(N)ncnc21)C(=O)CCCCCNC(=O)CCCC[C@@H]1SC[C@@H]2NC(=O)N[C@@H]21 [2d]
5. Nc1ncnc2c1nc(Sc1cc3c(cc1I)OCO3)n2CCCNC(=O)CCCC[C@@H]1SC[C@@H]2NC(=O)N[C@@H]21 [2c]

7010
2630
1350
2190
250

Hi! Can you tell me IC50 for each of these compounds?
1. CC(C)N(CCCn1c(Sc2cc3c(cc2I)OCO3)nc2c(N)ncnc21)C(=O)CCCCCNC(=O)CCCCCNC(=O)CCCC[C@@H]1SC[C@@H]2NC(=O)N[C@@H]21 [2f]
2. Nc1ncnc2c1nc(Sc1cc3c(cc1I)OCO3)n2CCCNC(=O)CCOCCOCCOCCOCCNC(=O)CCCC[C@@H]1SC[C@@H]2NC(=O)N[C@@H]21 [2i]
3. Nc1ncnc2c1nc(Sc1cc3c(cc1I)OCO3)n2CCCNC(=O)CCCCCNC(=O)CCCCCNC(=O)CCCC[C@@H]1SC[C@@H]2NC(=O)N[C@@H]21 [2g]

1: 4960; 2: 8590; 3: 1130
